molecular target: Serine/threonine-protein kinase ULK1 (Homo sapiens) (UniProt O75385); assay: Induction of ULK1-mediated autophagy in human SH-SY5Y cells at 1 uM after 6 hrs by MDC-staining based flow cytometric analysis relative to control; type: cell-based
MEASUREMENT_KIND: Activity (%)

Example cases with answers are listed next.
Cc1ccccc1NC(=O)[C@H](NC(=O)Nc1cccc(Cl)c1)c1ccccc1 | 27.4
Cc1cccc(C)c1NC(=O)N[C@@H](C(=O)Nc1cc(F)ccc1F)c1ccccc1 | 24.9
Cc1ccc(CCN[C@@H](C(=O)Nc2ccccc2C)c2ccccc2)cc1 | 13.8
Cc1ccccc1NC(=O)[C@H](NCCc1ccc(Cl)c(Cl)c1)c1ccccc1 | 20.3
COc1ccc(CCN[C@@H](C(=O)Nc2ccc(F)cc2F)c2ccccc2)cc1OC | 22.4

a: COc1ccc(N2CCN(CC(OC(=O)c3ccc(Cl)cc3Cl)c3ccccc3)CC2)cc1 (centres undefined)
b: O=C(Nc1ccc(C(F)(F)F)cc1)N[C@@H](C(=O)Nc1cccc(Br)c1)c1ccccc1
c: COc1ccc(NC(=O)N[C@@H](C(=O)N[C@H](C)c2ccccc2)c2ccccc2)cc1
Task for the reader: rank each entry by its Activity, from the minimum upward. Please respond with the labels ordered as the question requires. a, c, b

----------
Target: Serine/threonine-protein kinase ULK1 (Homo sapiens)
Sequence (whole entry): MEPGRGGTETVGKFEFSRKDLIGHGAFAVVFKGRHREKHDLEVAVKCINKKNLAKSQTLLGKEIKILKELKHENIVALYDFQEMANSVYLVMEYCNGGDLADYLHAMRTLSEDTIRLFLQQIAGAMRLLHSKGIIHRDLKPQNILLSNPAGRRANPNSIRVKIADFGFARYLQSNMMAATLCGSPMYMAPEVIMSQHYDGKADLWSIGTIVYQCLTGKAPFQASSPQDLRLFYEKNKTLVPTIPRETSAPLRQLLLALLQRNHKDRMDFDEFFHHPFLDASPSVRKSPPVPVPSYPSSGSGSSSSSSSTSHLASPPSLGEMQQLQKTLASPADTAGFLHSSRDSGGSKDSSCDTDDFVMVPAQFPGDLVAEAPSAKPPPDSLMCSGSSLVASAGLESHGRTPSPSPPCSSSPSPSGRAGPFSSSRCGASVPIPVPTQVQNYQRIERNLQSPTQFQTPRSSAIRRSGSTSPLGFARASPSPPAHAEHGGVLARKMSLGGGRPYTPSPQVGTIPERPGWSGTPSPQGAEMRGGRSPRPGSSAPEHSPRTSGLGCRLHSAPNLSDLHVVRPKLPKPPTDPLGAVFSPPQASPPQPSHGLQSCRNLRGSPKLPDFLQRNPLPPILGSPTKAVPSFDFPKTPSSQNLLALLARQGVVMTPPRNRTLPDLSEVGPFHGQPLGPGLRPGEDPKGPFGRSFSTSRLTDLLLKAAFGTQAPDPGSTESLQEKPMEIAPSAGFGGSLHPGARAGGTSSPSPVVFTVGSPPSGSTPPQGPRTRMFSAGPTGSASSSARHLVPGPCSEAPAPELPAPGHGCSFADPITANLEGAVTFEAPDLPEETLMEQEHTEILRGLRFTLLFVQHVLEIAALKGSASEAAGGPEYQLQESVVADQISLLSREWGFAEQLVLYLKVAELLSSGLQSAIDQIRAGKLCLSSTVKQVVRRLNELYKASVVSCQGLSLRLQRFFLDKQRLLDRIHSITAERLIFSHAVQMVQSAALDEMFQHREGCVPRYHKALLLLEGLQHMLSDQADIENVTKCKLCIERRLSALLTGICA
Assay: Induction of ULK1-mediated autophagy in human SH-SY5Y cells at 1 uM after 6 hrs by MDC-staining based flow cytometric analysis relative to control
Format: cell-based
MEASUREMENT_KIND: Activity (%)

Example cases with answers are listed next.
COc1ccc(N2CCN(CC(OC(=O)c3ccc(C(F)(F)F)cc3)c3ccccc3)CC2)cc1 (stereo not given) | 14.2
O=C(Nc1ccc(F)cc1F)[C@H](NCCc1cccc(F)c1)c1ccccc1 | 23.4
CN(C)c1ccc(CCN[C@@H](C(=O)Nc2ccc(F)cc2F)c2ccccc2)cc1 | 20.2

a: COc1ccc(NC(=O)N[C@@H](C(=O)Nc2cccc(Br)c2)c2ccccc2)cc1
b: C[C@@H](NC(=O)[C@H](NC(=O)Nc1cccc2ccccc12)c1ccccc1)c1ccccc1
So which one has the bigger Activity here, a or b ? # respond with the chosen item's label a
(a: 28.6%, b: 19.6%)
